# measurement target: HDAC3/NCoR2 (Homo sapiens)
# Construct: HDAC3/NCoR2 (full length, C-terminal His tag, NCoR2 N-terminal GST tag); purchased BPS Bioscience 50003
# Sequence (O15379 whole entry): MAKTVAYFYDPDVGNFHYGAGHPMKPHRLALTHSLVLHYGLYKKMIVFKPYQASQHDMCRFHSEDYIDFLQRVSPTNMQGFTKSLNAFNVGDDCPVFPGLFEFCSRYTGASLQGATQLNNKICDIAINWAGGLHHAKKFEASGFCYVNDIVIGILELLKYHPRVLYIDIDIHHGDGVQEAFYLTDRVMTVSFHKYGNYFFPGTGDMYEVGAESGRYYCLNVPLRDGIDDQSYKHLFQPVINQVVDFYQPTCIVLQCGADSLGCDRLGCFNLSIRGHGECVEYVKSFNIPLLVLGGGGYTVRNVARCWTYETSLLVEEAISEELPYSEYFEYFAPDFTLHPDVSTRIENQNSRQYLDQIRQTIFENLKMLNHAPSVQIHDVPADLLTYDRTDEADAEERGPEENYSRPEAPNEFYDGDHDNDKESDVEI
# Sequence (Q9Y618 389-480 partner limits assumed): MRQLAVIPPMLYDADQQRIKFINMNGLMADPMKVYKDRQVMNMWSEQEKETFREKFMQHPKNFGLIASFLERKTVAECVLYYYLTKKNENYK
# test summary: Recombinant HDAC µSPOT microarray binding assay;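 further: peptide spots on cellulose slides incubated with rising HDAC enzyme concentrations, imaged together, four-parameter logistic fit, EC50 is enzyme concentration giving half-maximal binding signal, two experiments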;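 further: relative spot intensity from the six enzyme-concentration slides imaged together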
# condition: HDAC3 µSPOT microarray, Fig. 3; fitted top plateau of binding signal; X = Asuha
Note to self: Top (dose-response curve fit) under 0.6 means satisfied, ties and anything higher get not satisfied.

Reference set, count: 2
substance	measurement target	assigned class
H2A 55-70 (LEYLTAEILELAGNAA; UniProt P0C0S8 56-71, looked up, fragment)	HDAC3/NCoR2 (Homo sapiens)	not satisfied
H2B 64-79 (SFVNDIFERIAGEASR; UniProt P62807 65-80, looked up, fragment)	HDAC3/NCoR2 (Homo sapiens)	satisfied

Query: A record lists H2A 46-61 (GAPVYLAAVLEYLTAE; UniProt P0C0S8 47-62, looked up, fragment) . Is its Top (dose-response curve fit) below 0.6?
Reply: satisfied

Query: Same lookup for H2A 49-64 (VYLAAVLEYLTAEILE; UniProt P0C0S8 50-65, looked up, fragment) , please.
Reply: satisfied

Query: Same lookup for H2A 79-94 (IPRHLQLAIRNDEELN; UniProt P0C0S8 80-95, looked up, fragment) , please.
Reply: not satisfied

Query: Same lookup for H2A 40-55 (AERVGAGAPVYLAAVL; UniProt P0C0S8 41-56, looked up, fragment) , please.
Reply: satisfied

Query: Same lookup for H2A 16-31 (TRSSRAGLQFPVGRVH; microarray-immobilized; UniProt P0C0S8 17-32, looked up, fragment) , please.
Reply: not satisfied

Query: Same lookup for H2B 58-73 (AMGIMNSFVNDIFERI; UniProt P06899 59-74, looked up, fragment) , please.
Reply: satisfied

Numbers sourced from paper PMC7782793.
